- System: A-431
- TEST: Growth inhibition of human A431 cells after 72 hrs by MTT assay
- Assay type: functional
- PROTOCOL_CONDITIONS: A-431, 72 h
MEASURE_NAME: GI50 (µM)
The figure you give is taken to be in µM; do not add the unit.

[
  {
    "MOLECULE": "Cc1cc2c(c3oc(=O)c([Si](C)(C)C)cc13)C(=O)c1c(OC(C)C)cccc1C2=O",
    "MEASURE_NAME": "GI50",
    "UNITS_LABEL": "µM",
    "OBSERVED_RESULT": 19
  },
  {
    "MOLECULE": "CCC(C)(O)c1cc2c(C)cc3c(c2oc1=O)C(=O)c1c(OC(C)C)cccc1C3=O (stereo not drawn)",
    "MEASURE_NAME": "GI50",
    "UNITS_LABEL": "µM",
    "OBSERVED_RESULT": 15
  }
]

Query molecule follows.
[Q] Please report the measured GI50 for Cc1cc2c(c3oc(CCC(F)(F)F)cc(=O)c13)C(=O)c1c(O)cccc1C2=O
[A] 0.51

====

- Tested on: A-431
- TEST: Growth inhibition of human A431 cells after 72 hrs by MTT assay
- Format: functional
- PROTOCOL_CONDITIONS: A-431, 72 h
MEASURE_NAME: GI50 (µM)
The figure you give is taken to be in µM; do not add the unit.

[
  {
    "COMPOUND": "Cc1cc2c(c3oc(CCCC#N)cc13)C(=O)c1c(OC(C)C)cccc1C2=O",
    "OBSERVED_RESULT": 9.8
  },
  {
    "COMPOUND": "CCC(C)(OCc1ccccc1)c1cc2c(C)cc3c(c2oc1=O)C(=O)c1c(O)cccc1C3=O (stereo not given)",
    "OBSERVED_RESULT": 4
  },
  {
    "COMPOUND": "CCCc1cc(=O)c2c(C)cc3c(c2o1)C(=O)c1c(O)cccc1C3=O",
    "OBSERVED_RESULT": 1.6
  },
  {
    "COMPOUND": "CC(=O)c1cc2c(C)cc3c(c2o1)C(=O)c1c(O)cccc1C3=O",
    "OBSERVED_RESULT": 4.8
  }
]

Query compound follows.
[Q] Please report the measured GI50 for CCCc1cc(=O)c2c(C)cc3c(c2o1)C(=O)c1c(OC)cccc1C3=O
[A] 6.6

====

- Tested on: P338
- TEST: Growth inhibition of mouse […] cells
- Assay type: functional, cell-based
MEASURE_NAME: pIC50
When answering, recall that pIC50 equals minus log10 of the concentration in mol/L, and write that number alone.

[Q] Please report the measured pIC50 for Cc1cc2c(c3oc(C4(C)CO4)cc(=O)c13)C(=O)c1c(O)cccc1C2=O (racemic)
[A] 9.00

====

- Test system: MCF7
- TEST: Growth inhibition of human MCF7 cells after 72 hrs by MTT assay
- Type: functional
Activity calls are given as the source filed them. The calls are words filed in the database; no cut-off is given here.
MEASURE_NAME: growth inhibition (GI)

Solved entries (count: 4):
[
  {
    "COMPOUND": "CCCCCCc1cc2c(C)cc3c(c2oc1=O)C(=O)c1c(O)cccc1C3=O",
    "TARGET_OR_TEST_SYSTEM": "MCF7",
    "MEASURE_NAME": "growth inhibition (GI)",
    "OBSERVED_RESULT": "Active"
  },
  {
    "COMPOUND": "CCCCCCc1cc2c(C)cc3c(c2o1)C(=O)c1c(OC(C)C)cccc1C3=O",
    "TARGET_OR_TEST_SYSTEM": "MCF7",
    "MEASURE_NAME": "growth inhibition (GI)",
    "OBSERVED_RESULT": "Active"
  },
  {
    "COMPOUND": "CCC(C)(OCc1ccccc1)c1cc2c(C)cc3c(c2oc1=O)C(=O)c1c(OC(C)C)cccc1C3=O (stereo not given)",
    "TARGET_OR_TEST_SYSTEM": "MCF7",
    "MEASURE_NAME": "growth inhibition (GI)",
    "OBSERVED_RESULT": "Active"
  },
  {
    "COMPOUND": "CCCc1cc2c(C)cc3c(c2o1)C(=O)c1c(OC(C)C)cccc1C3=O",
    "TARGET_OR_TEST_SYSTEM": "MCF7",
    "MEASURE_NAME": "growth inhibition (GI)",
    "OBSERVED_RESULT": "Active"
  }
]

Query compound follows.
[Q] Please report the measured growth inhibition (GI) for Cc1cc2c(c3oc(-c4ccccc4)cc(=O)c13)C(=O)c1c(O)cccc1C2=O
[A] Active

====

Overview of reported log10 of GI50 across a group of compounds:
- Test system: HT-29
- TEST: Growth inhibition of human HT-29 cells after 72 hrs by MTT assay
- Format: functional
- PROTOCOL_CONDITIONS: HT-29, 72 h
The base-10 logarithm of GI50, taken with GI50 in µM, is what appears here.

[
  {
    "COMPOUND": "Cc1cc2c(c3oc(C4(C)CO4)cc(=O)c13)C(=O)c1c(O)cccc1C2=O (racemic)",
    "OBSERVED_RESULT": 0.30
  },
  {
    "COMPOUND": "CCCCCC(=O)c1cc2c(C)cc3c(c2o1)C(=O)c1c(OC(C)C)cccc1C3=O",
    "OBSERVED_RESULT": -0.06
  },
  {
    "COMPOUND": "Cc1cc2c(c3oc(CCCC#N)cc13)C(=O)c1c(OC(C)C)cccc1C2=O",
    "OBSERVED_RESULT": 1.04
  },
  {
    "COMPOUND": "CCCCCCc1cc2c(C)cc3c(c2o1)C(=O)c1c(O)cccc1C3=O",
    "OBSERVED_RESULT": 1.23
  }
]

[Q] Please report the measured log10 of GI50 for Cc1cc2c(c3oc(CCCCl)cc13)C(=O)c1c(O)cccc1C2=O
[A] 0.28

[Q] Please report the measured log10 of GI50 for Cc1cc2c(c3oc(CCCC#N)cc13)C(=O)c1c(O)cccc1C2=O
[A] 0.28

[Q] Please report the measured log10 of GI50 for Cc1cc2c(c3oc(=O)c(CCCCl)cc13)C(=O)c1c(OC(C)C)cccc1C2=O
[A] 1.18

[Q] Please report the measured log10 of GI50 for Cc1cc2c(c3oc(C(C)O)cc13)C(=O)c1c(O)cccc1C2=O (stereo not drawn)
[A] 1.11

====

- Tested on: A-431
- TEST: Growth inhibition of human A431 cells after 72 hrs by MTT assay
- Type: functional
- PROTOCOL_CONDITIONS: A-431, 72 h
Overview of reported GI50 across a group of molecules:
The figure you give is taken to be in µM; do not add the unit.

Solved entries (count: 5):
[
  {
    "MOLECULE": "Cc1cc2c(c3oc(=O)cc(CCCCl)c13)C(=O)c1c(OC(C)C)cccc1C2=O",
    "TARGET_OR_TEST_SYSTEM": "A-431",
    "UNITS_LABEL": "µM",
    "OBSERVED_RESULT": 12
  },
  {
    "MOLECULE": "Cc1cc2c(c3oc(C(C)O)cc13)C(=O)c1c(OC(C)C)cccc1C2=O (stereo not given)",
    "TARGET_OR_TEST_SYSTEM": "A-431",
    "UNITS_LABEL": "µM",
    "OBSERVED_RESULT": 19
  },
  {
    "MOLECULE": "CCCc1cc2c(C)cc3c(c2o1)C(=O)c1c(O)cccc1C3=O",
    "TARGET_OR_TEST_SYSTEM": "A-431",
    "UNITS_LABEL": "µM",
    "OBSERVED_RESULT": 2.3
  },
  {
    "MOLECULE": "Cc1cc2c(c3oc(=O)c(C(C)(C)C)cc13)C(=O)c1c(OC(C)C)cccc1C2=O",
    "TARGET_OR_TEST_SYSTEM": "A-431",
    "UNITS_LABEL": "µM",
    "OBSERVED_RESULT": 17
  },
  {
    "MOLECULE": "CC(=O)c1cc2c(C)cc3c(c2o1)C(=O)c1c(OC(C)C)cccc1C3=O",
    "TARGET_OR_TEST_SYSTEM": "A-431",
    "UNITS_LABEL": "µM",
    "OBSERVED_RESULT": 5.8
  }
]

[Q] Please report the measured GI50 for CCc1cc(=O)c2c(C)cc3c(c2o1)C(=O)c1c(OC(C)C)cccc1C3=O
[A] 5.7

[Q] Please report the measured GI50 for Cc1cc2c(c3oc(CCCCl)cc13)C(=O)c1c(O)cccc1C2=O
[A] 0.59

[Q] Please report the measured GI50 for Cc1cc2c(c3oc(C(C)O)cc13)C(=O)c1c(O)cccc1C2=O (stereo not given)
[A] 9

[Q] Please report the measured GI50 for CCc1cc(=O)c2c(C)cc3c(c2o1)C(=O)c1c(OC)cccc1C3=O
[A] 5.7

[Q] Please report the measured GI50 for Cc1cc2c(c3oc(=O)c(CCCC#N)cc13)C(=O)c1c(O)cccc1C2=O
[A] 12

[Q] Please report the measured GI50 for Cc1cc2c(c3oc(CCCC#N)cc13)C(=O)c1c(O)cccc1C2=O
[A] 13

[Q] Please report the measured GI50 for Cc1cc2c(c3oc(CCCCl)cc13)C(=O)c1c(OC(C)C)cccc1C2=O
[A] 23

[Q] Please report the measured GI50 for Cc1cc2c(c3oc(C(=O)c4ccccc4)cc13)C(=O)c1c(OC(C)C)cccc1C2=O
[A] 1.77

[Q] Please report the measured GI50 for Cc1cc2c(c3oc(C4(C)CO4)cc(=O)c13)C(=O)c1c(O)cccc1C2=O (racemic)
[A] 0.95

[Q] Please report the measured GI50 for Cc1cc2c(c3oc(=O)c(CCCCl)cc13)C(=O)c1c(OC(C)C)cccc1C2=O
[A] 17

[Q] Please report the measured GI50 for Cc1cc2c(c3oc(=O)c(C(C)(C)O)cc13)C(=O)c1c(OC(C)C)cccc1C2=O
[A] 19

[Q] Please report the measured GI50 for CCCCCC(=O)c1cc2c(C)cc3c(c2o1)C(=O)c1c(OC(C)C)cccc1C3=O
[A] 1.4

[Q] Please report the measured GI50 for CCCCCCc1cc2c(C)cc3c(c2o1)C(=O)c1c(O)cccc1C3=O
[A] 18

[Q] Please report the measured GI50 for CCCCc1cc(=O)oc2c3c(cc(C)c12)C(=O)c1cccc(OC(C)C)c1C3=O
[A] 20

[Q] Please report the measured GI50 for C=C(C)c1cc(=O)c2c(C)cc3c(c2o1)C(=O)c1c(O)cccc1C3=O
[A] 1.8
